# MEASURED_ON: HLA-A*31:01
# ASSAY_METHOD_TEXT: IEDB peptide-MHC binding, purified MHC/direct/fluorescence; filed as Kd, often an IC50 or EC50 that approximates it; bounds were set here for any values at or beyond the usual limits of such assays
# ASSAY_CONDITIONS: source organism: Rickettsia australis
QUANTITY: Kd
The answer should read as a number with its unit following.

Input: Returns the measured Kd for the input sequence. Input: "ATYGTAVNK"
Output: 37.1 nM

* * *

# MEASURED_ON: HLA-A*69:01
# ASSAY_METHOD_TEXT: IEDB peptide-MHC binding, purified MHC/direct/fluorescence; filed as Kd, often an IC50 or EC50 that approximates it; bounds were set here for any values at or beyond the usual limits of such assays
# ASSAY_CONDITIONS: source organism: Camelpox virus CMS
pKd: −log10 of the molar value.
QUANTITY: pKd

Input: Entry "VIARTHTAL" : reported pKd = ?
Output: ≤ 4.70

Taken from the Immune Epitope Database (IEDB).
